- measured_target: Hck (UniProt P08631)
- Sequence (P08631 whole entry, looked up): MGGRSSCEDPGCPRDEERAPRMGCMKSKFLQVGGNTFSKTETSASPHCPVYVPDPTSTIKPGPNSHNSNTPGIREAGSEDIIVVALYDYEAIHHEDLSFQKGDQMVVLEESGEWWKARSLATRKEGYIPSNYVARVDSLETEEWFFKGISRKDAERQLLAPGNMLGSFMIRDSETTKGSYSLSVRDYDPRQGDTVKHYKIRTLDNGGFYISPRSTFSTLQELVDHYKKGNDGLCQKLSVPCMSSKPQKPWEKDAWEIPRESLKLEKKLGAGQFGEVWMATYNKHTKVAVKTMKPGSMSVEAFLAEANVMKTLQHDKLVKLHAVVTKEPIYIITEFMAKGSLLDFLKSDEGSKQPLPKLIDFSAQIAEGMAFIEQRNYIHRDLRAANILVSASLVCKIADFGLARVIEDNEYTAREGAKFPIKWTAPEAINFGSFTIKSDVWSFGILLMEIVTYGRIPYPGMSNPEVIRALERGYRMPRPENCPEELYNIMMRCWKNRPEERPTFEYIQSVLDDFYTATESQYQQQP
- procedure_details: phosphorylation enrichment, bacterial display (enrichment ratio); higher = better substrate or ligand; peptides without Tyr show the background;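 further: 11-residue human phosphosite peptides and single-mutation variants displayed on the E. coli surface, counted by deep sequencing, each peptide's frequency after selection divided by its frequency in the unselected input library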;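 further: frequency after pTyr selection over input frequency; kinase dosed for 20-30% of maximal phosphorylation in three min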
Outcome label depends on phosphorylation enrichment relative to 0.6: at/above gives true, below gives false.

A selection of reference data follows.
HYECKYVINAI [MAOA_Y268] = true
DTCPPYVLSQG [GJB4_Y237] = false
YRQNVYIPGSN [PCDHGA1_Y895] = false
PVQAAYRKVVA [HBB_Y131_Q132R] = false
QNTADYYDLYG [PTPN11_Y62_G60A] = true
ELETLYKKAVK [CC2D2A_Y381] = false

Query block: Test whether the sequence EERNPYFSSAR [MCCC2_Y520_G517R_YF] records phosphorylation enrichment of 0.6 or higher.
Result block: true

Query block: Test whether the sequence QTWKTYVRQQQ [SFI1_Y164] records phosphorylation enrichment of 0.6 or higher.
Result block: false

Query block: Test whether the sequence RPYVYYYSYLL [PTEN_Y177_R173P] records phosphorylation enrichment of 0.6 or higher.
Result block: true

Query block: Test whether the sequence NHQYDYTFHWT [CSNK1A1_Y294_D297H] records phosphorylation enrichment of 0.6 or higher.
Result block: true

Query block: Test whether the sequence ALCHYYKLNII [ETV6_Y402_R399C] records phosphorylation enrichment of 0.6 or higher.
Result block: true

Query block: Test whether the sequence LRYDSYWSYCN [SLC20A2_Y433_S434W] records phosphorylation enrichment of 0.6 or higher.
Result block: true

Query block: Test whether the sequence TTPFNYSFIFK [RAB14_Y8_A4T_YF] records phosphorylation enrichment of 0.6 or higher.
Result block: true

====

- measured_target: Jak2 (UniProt O60674)
- Sequence (O60674 whole entry, looked up): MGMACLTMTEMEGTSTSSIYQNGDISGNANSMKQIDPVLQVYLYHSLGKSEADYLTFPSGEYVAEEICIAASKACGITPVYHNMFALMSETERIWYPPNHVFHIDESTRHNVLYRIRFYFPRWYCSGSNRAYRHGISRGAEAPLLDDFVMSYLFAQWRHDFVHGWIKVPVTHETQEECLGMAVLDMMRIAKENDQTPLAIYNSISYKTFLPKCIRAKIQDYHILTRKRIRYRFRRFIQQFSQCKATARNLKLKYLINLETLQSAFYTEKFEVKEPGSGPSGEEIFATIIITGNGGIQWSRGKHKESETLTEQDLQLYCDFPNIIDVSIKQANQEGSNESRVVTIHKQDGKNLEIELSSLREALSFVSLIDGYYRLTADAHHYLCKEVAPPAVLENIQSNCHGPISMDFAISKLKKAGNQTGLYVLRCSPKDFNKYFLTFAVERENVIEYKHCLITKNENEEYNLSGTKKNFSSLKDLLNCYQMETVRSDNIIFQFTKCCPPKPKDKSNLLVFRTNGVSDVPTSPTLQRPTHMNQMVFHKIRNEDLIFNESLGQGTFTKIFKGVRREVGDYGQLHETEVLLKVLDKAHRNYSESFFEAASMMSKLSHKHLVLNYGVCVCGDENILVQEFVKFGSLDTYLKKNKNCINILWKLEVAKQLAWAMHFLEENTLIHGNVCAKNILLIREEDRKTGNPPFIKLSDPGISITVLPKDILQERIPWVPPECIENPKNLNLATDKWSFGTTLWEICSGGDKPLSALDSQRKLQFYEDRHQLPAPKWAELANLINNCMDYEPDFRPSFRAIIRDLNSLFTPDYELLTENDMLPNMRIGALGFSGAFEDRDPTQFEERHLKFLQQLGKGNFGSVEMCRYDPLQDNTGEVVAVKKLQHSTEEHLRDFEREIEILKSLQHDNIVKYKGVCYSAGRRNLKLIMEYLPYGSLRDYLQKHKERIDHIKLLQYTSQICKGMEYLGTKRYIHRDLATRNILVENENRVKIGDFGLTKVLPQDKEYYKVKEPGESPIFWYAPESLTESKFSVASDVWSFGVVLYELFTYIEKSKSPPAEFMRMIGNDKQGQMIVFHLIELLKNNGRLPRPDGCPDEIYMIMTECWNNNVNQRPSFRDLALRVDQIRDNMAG
- procedure_details: phosphorylation enrichment, bacterial display (enrichment ratio); higher = better substrate or ligand; peptides without Tyr show the background
Below, each entry is listed with its recorded phosphorylation enrichment.

These recorded examples may help you get a feel for the data.
QSSALYEDRFL [ASS1_Y83_YF] = 1.23
LEAVSYSSRFA [RNLS_Y190_YF] = 0.564
SPPILYSFYLN [FCRL6_Y239_D244N] = 1.22
DVCKKYAEAKD [ALB_Y343_N342K] = 0.897

Query block: Identify the measured phosphorylation enrichment of IGMSSYVMLAS [GGCX_Y301_F299S] for Jak2 (UniProt O60674).
Result block: 1.66

Query block: Identify the measured phosphorylation enrichment of TFVKSYTIHFS [F5_Y2153_M2148T_YF] for Jak2 (UniProt O60674).
Result block: 1.28

====

- measured_target: EPHB2 (UniProt P29323)
- Sequence (P29323 whole entry, looked up): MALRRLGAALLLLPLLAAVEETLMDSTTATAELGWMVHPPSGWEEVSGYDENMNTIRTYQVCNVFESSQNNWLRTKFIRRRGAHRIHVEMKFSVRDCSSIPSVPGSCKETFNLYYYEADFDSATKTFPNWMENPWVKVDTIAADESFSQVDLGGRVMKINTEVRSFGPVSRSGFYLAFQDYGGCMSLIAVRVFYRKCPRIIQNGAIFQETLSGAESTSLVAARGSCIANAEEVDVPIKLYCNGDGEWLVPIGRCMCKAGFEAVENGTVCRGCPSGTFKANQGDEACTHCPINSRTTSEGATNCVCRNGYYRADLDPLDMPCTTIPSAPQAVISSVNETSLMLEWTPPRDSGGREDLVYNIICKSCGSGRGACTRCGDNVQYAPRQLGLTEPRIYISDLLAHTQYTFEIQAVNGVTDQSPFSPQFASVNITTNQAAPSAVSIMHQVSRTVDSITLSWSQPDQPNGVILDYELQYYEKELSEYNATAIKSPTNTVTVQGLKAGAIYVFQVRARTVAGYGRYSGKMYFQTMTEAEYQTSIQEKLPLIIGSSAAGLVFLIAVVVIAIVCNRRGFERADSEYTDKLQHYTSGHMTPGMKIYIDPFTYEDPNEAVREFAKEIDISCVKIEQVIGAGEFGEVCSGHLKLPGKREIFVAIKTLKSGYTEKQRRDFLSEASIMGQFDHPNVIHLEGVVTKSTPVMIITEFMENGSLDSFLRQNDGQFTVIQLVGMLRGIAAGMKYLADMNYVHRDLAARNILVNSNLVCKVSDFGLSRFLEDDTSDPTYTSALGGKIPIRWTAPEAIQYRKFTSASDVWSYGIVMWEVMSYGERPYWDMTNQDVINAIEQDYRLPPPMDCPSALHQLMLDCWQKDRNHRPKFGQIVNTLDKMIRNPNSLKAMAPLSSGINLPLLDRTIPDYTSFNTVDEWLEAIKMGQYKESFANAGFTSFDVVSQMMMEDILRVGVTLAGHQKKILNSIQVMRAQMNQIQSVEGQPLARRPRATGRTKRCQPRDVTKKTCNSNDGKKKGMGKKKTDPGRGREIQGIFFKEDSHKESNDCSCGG
- procedure_details: phosphorylation enrichment, bacterial display (enrichment ratio); higher = better substrate or ligand; peptides without Tyr show the background
measured_endpoint: phosphorylation enrichment
Note: the reply should be a number with no unit written.

These recorded examples may help you get a feel for the data.
SSPMKYQQNVS [EGFEM1P_Y160] = 0.352
KIVYVYVKKRS [DNAI2_Y7_E2K] = 0.538
SILAVYSKDNF [PANK2_Y400_YF] = 0.76

Query block: # get_value(readout='phosphorylation enrichment', item= PLQHVYKIGGI [EEF1A2_Y254_D252H] )
Result block: 0.71

Query block: # get_value(readout='phosphorylation enrichment', item= KWRGQYDVAIE [BTK_Y425_K430E] )
Result block: 0.531

Values were extracted from the supplement of paper PMC10065799.
